Measured relative solubility at 20 uM of individual entries
details: 20.0 µM
Respond with the number and no other words.

# count of solved cases: 3
• Cc1cccc(CS(=O)(=O)N2CCC(C(N)=O)CC2)c1 = 1.01
• O=C(c1cc(=O)[nH]c2ccccc12)N1CCN(c2ccccc2F)CC1 = 0.98
• O=C(Nc1cccc(C(=O)N2CCSCC2)c1)C(F)Cl (centres undefined) = 1

# context switch: different compound, same relative solubility at 20 uM
Q: Return reported relative solubility at 20 uM; argument: `O=C1C(=O)N(Cc2ccc(Br)cc2)c2ccccc21`
Result: 1.01

###

target: UniProtKB P0DTD1; conditions: 20.0 µM
value kind: inhibition (%)
The reply should be a number in %, with the unit left off.

• CC(C)Cn1cc(NC(=O)NC2CCCCCC2)c2ccccc2c1=O = 4.79

Q: Reported inhibition, compound `O=C(Cc1cncnc1)Nc1cccc(CCCc2ccccc2)c1` : ____
Result: 1.12

Q: How about `CCCCN(CCCNC(=O)Nc1cn(CC(C)C)c(=O)c2ccccc12)c1ccccc1` ?
Result: -4.26

Q: Now consider C=CC(=O)N(c1cc(C(C)(C)C)n[nH]1)C(C(=O)Nc1ccc(Cl)cc1)c1cccnc1 (stereo unspecified) and answer again.
Result: 6.12

Q: Repeat with C=CC(=O)N(c1ccc(N(C)C)c(C)c1)C(C(=O)NC(C)(C)C)c1cccnc1 (stereo unspecified)
Result: 2.89

Q: What would you report for `CCS(=O)(=O)N1CCC(C(=O)Nc2cc(Cl)ccc2O)CC1` ?
Result: -1.05

Q: Also need `O=C(c1cc(=O)[nH]c2ccc(Cl)cc12)N1CCN(S(=O)(=O)c2ccccc2F)CC1` , thanks.
Result: -7.48

Q: Likewise for COC(=O)C(c1ccccc1Cl)N1CCC(S)/C(=C/C(=O)O)C1 (stereo unspecified) ?
Result: -2.05

Just for reference, the COVID Moonshot data (paper PMC11187573) is where these values come from.
